Hello, the source for this data is PubChem BioAssay (NCI), in case you need it.

Each record here notes measured TGI.
Tested on: UO-31 renal
assay-procedure: NCI tumour cell line growth inhibition, 48 h
The reply should contain only the number, in µM.

- molecule: "CC(=O)/C(Br)=C/c1ccc(Br)o1"
  measured-property: "TGI"
  quantitative-result: 29.1

stdin: What does the data say about its TGI? Entry: CC1=C(C(=O)Nc2ccc(F)c(Cl)c2)C(c2cccc(Oc3ccccc3)c2)NC(=S)N1 (stereo not given)
stdout: 44.3

* * *

System: MDA-MB-435
assay-procedure: NCI tumour cell line growth inhibition, 48 h
Each record here notes measured TGI.

- structure: "O=C(Nc1cc(F)c(F)cc1C(=O)O)c1ccc(-n2ccnc2)nn1"
  TGI: "> 100 µM"
- structure: "O=[N+]([O-])c1cc(N=Nc2c(O)ccc3cc(S(=O)(=O)O)ccc23)c(O)c([N+](=O)[O-])c1"
  TGI: "> 100 µM"

// below: TGI requested for another molecule
stdin: Form entry - test system: MDA-MB-435; read-out: TGI; molecule: "COc1ccc(-c2cn(-c3ccc(OC)c(OC)c3)c(=O)[nH]2)cc1"
stdout: > 100 µM
